test system: PRKACA-PRKAR2A interaction (SmBiT-PRKACA / LgBiT-PRKAR2A), protein kinase A; design: NanoLuc complementation counter-screen in cell extract, PRKACA with PRKAR2A, loss of luminescence, detects NanoLuc interference; conditions: counter-screen for NanoLuc interference; 0.5 h, 20 µM; inhibitor
Structures can show the parent of a compound that is named as a salt.
Kindly state Inh (PKA) for each of the entries shown.
Numbers only, in %.

Consider the following illustrative entries.
Cc1cccc(CC(=O)N2CCc3c2ccc(-c2cn(C)c4ncnc(N)c24)c3F)n1 [UM0142431:01, GSK2656157] : -0.3115
COCCOc1ccc2c(c1)ncn2-c1ccc2cccc(N3CCC(N)CC3)c2n1 [UM0142429:01, CP-673451] : 21.57
O=C(NCc1ccncc1)C12CC3CC(C1)CC(c1ccc(Cl)cc1)(C3)C2 [UM0142183:01, ABC294640] : 8.98

List Inh (PKA) for every entry below, keeping the order given.
1. CC(C)c1ccccc1Cc1cc(C(=O)Nc2ccc(S(=O)(=O)c3ccccc3C(C)(C)C)cc2)c(O)c(O)c1O [UM0141770:01, TW-37]
2. NC[C@H]1O[C@H](O[C@H]2[C@H](O[C@@H]3O[C@H](CO)[C@@H](O)[C@H]3O)[C@@H](O)[C@H](N)C[C@@H]2N)[C@H](N)[C@@H](O)[C@@H]1O [UM0142378:01, Ribostamycin Sulfate]
3. CC1=Nc2ccc(Cl)cc2S(=O)(=O)N1 [UM0142775:01, Diazoxide]
4. CC(=O)Oc1ccccc1C(=O)O [UM0119503:03, Aspirin (Acetylsalicylic acid)]
5. CC(C)c1nc(N(C)S(C)(=O)=O)nc(-c2ccc(F)cc2)c1/C=C/[C@@H](O)C[C@@H](O)CC(=O)O [UM0142070:01, Rosuvastatin Calcium]
6. CC(C)CCN1c2nc(Nc3cc(F)c(O)c(F)c3)ncc2N(C)C(=O)C1C (centres unmarked) [UM0142455:01, BI-D1870]
7. CC(C)C[C@H](NC(=O)CNC(=O)c1cc(Cl)ccc1Cl)B(O)O [UM0141663:01, MLN2238]

[out]
1: 2.732; 2: 35.19; 3: -0.314; 4: 1.275; 5: 4.68; 6: 64.82; 7: 0.9496

List Inh (PKA) for every entry below, keeping the order given.
1. CC1(C)[C@H](C(=O)O)N2C(=O)C[C@H]2S1(=O)=O [UM0142408:01, Sulbactam sodium]
2. CCCCS(=O)(=O)N[C@@H](Cc1ccc(OCCCCC2CCNCC2)cc1)C(=O)O [UM0141561:03, Tirofiban hydrochloride monohydrate]
3. CCn1c(=O)c(-c2ccc(-c3cncs3)cc2Cl)cc2cnc(Nc3ccc(N4CCN(C)CC4)cc3)nc21 [UM0142182:01, FRAX597]
4. Nc1nccc2c1ncn2[C@@H]1O[C@H](CO)[C@@H](O)[C@H]1O [UM0142748:01, 3-Deazaadenosine]
5. COc1ccc(C2CNC(=O)C2)cc1OC1CCCC1 (centres unmarked) [UM0141786:01, Rolipram]
6. COc1ccc(-c2coc3cc(O)cc(O)c3c2=O)cc1 [UM0133867:02, Biochanin A]
7. COc1cc(NC(=O)Nc2cccc(CNC(=O)O[C@H]3CCOC3)c2)ccc1-c1cnco1 [UM0142173:01, Merimepodib]

[out]
1.508
1.888
16.18
-15.82
-0.06153
69.13
28.05

List Inh (PKA) for every entry below, keeping the order given.
1. CC(C)C[C@H](NC(=O)[C@H](CC(C)C)NC(=O)[C@H](CC(C)C)NC(=O)OCc1ccccc1)B(O)O [UM0141934:01, MG-262]
2. C/C(=C\c1csc(C)n1)[C@@H]1C[C@@H]2O[C@]2(C)CCC[C@H](C)[C@H](O)[C@@H](C)C(=O)C(C)(C)[C@@H](O)CC(=O)N1 [UM0141566:01, Ixabepilone]
3. COc1cc2c(Oc3ccc4[nH]c(C)cc4c3F)ncnc2cc1OCCCN1CCCC1 [UM0141418:01, Cediranib (AZD217)]

[out]
1: 2.364; 2: 1.607; 3: 13.87

----------
biological target: MeCP2-TBL1 interaction (MeCP2-SmBiT / TBL1-LgBiT) (Mus musculus, UniProt Q9QXE7); construct: expressed in transfected cells; crude lysate used as a cell-free assay; assay: MeCP2-TBL1 NanoLuc luciferase complementation assay (cell-free, extracts of transfected HEK293 cells);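 further: each compound tested at 20 µM final concentration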; format: binding, human; details: primary screen of the Asinex library, sheet "Sargen output Asinex library", one well per compound, Batch Ref. 1
Sequence (Q9QXE7 166-527): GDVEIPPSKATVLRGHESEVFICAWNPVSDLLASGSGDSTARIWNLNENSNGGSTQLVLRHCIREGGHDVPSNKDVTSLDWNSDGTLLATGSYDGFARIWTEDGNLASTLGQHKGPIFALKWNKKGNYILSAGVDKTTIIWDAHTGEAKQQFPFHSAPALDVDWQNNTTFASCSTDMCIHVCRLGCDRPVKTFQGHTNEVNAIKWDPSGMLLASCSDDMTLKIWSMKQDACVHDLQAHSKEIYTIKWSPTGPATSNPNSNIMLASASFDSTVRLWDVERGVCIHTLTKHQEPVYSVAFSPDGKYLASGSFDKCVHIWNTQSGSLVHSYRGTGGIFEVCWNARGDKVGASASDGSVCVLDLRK
Kindly state Inhibition percent for each of the entries shown.
Give bare numbers, in %.

O=C(NCc1ccccc1)c1cccnc1C1CCCCN1CC(=O)N1CCNC1=O (stereo not drawn) [BDE_24470675] : -2.87
CC1(C(=O)N2CCCC(Cc3cccc4ccncc34)CC2)CCN(C(=O)c2ccccc2)CC1 (stereo not drawn) [BDH_32360998] : -2.76

Then this compound:
[in] Which measured Inhibition percent value corresponds to Cc1nc(N(C)C)cc(C2(C)CCCN(C(=O)c3ccc(Cl)c(N4CCOCC4)c3)C2)n1 (stereo not drawn) [BDH_32364491] ?
[out] -1.79

----------
target: MeCP2-TBL1 interaction (MeCP2-SmBiT / TBL1-LgBiT) (Mus musculus); construct: expressed in transfected cells; crude lysate used as a cell-free assay; experiment: MeCP2-TBL1 NanoLuc luciferase complementation assay (cell-free, extracts of transfected HEK293 cells); assay type: binding, human; conditions: primary screen of the Asinex library, sheet "Sargen output Asinex library", one well per compound, Batch Ref. 1
experimental.endpoint: Inhibition percent (%)
Numbers only, in %.

Consider the following illustrative entries.
Cc1nc(C2CCN(C(=O)C3CCCC3)CC2)nc2c1CCC(=O)N2CCc1ccccc1 : -0.38
CNC(=O)c1cnn2c(C3CCCN(C(=O)c4ccnc(Cc5cccc(F)c5)c4)C3)ccnc12 (stereo not shown) : -0.09

List Inhibition percent for every entry below, keeping the order given.
1. CC1(C)Oc2cc(O)ccc2[C@@H]2O[C@@H]3CCCN(C(=O)CCCC(=O)O)[C@@H]3C[C@H]21
2. CC(C)[C@H](NC(=O)[C@H](C)N)C(=O)N1CCC[C@H]2O[C@H]3c4cc(Cl)ccc4OC(C)(C)[C@@H]3C[C@H]21
3. Cc1ccc2c(c1)OC(C)(C)[C@H]1CC3(CCN(C(=O)CN4CCOCC4)CC3)CO[C@H]21
4. Cc1ccc2c(c1)OC1(CCN(Cc3cscn3)CC1)[C@H]1CCCO[C@H]21
5. C[C@]12C[C@@H](Cc3ccccc3)N(CC(=O)Nc3cccc(C(F)(F)F)c3)[C@H]1CCCC(=O)N2
6. CCCCC[C@]1(O)CCN(S(=O)(=O)c2ccccc2)C[C@@H]1Oc1cccc(F)c1

[out]
1. 5.44
2. -1.63
3. -1.45
4. 4.69
5. 6.90
6. 9.13

List Inhibition percent for every entry below, keeping the order given.
1. Cn1cc(CC(=O)N2C[C@@H](c3cccc(F)c3)[C@@]3(CCCCC(=O)N3)C2)c2ccccc21
2. O=C(CCc1[nH]nc2c1CCCC2)N1CCOC(c2cccc(Cc3ccc(F)cc3)n2)C1 (stereo not shown)
3. CN(C)CC(=O)N1CCCC(C)(C(=O)N2CCC(c3cccc(Cc4ccccc4)n3)CC2)C1 (stereo not shown)
4. Cc1nonc1COc1ccccc1C(=O)N1CCCC(Cc2ccc3ccncc3c2)CC1 (stereo not shown)

[out]
1. 1.56
2. -1.98
3. 2.74
4. 5.62

List Inhibition percent for every entry below, keeping the order given.
1. Cc1nc2ccc(NC(=O)CN3CC[C@@]4(C)[C@@H]3CCCCC(=O)N4Cc3ccc(F)cc3)cc2[nH]1
2. C[C@]12C[C@@H]3N[C@H]1CCC[C@H]2N(C(=O)COc1ccccc1F)[C@H]3Cc1ccccc1
3. CC1(C)Oc2ccc(Cl)cc2[C@@H]2O[C@@H]3CCN(CC(=O)N4CC(=O)Nc5ccccc54)C[C@@H]3C[C@H]21

[out]
1. 6.38
2. 4.10
3. 3.72

List Inhibition percent for every entry below, keeping the order given.
1. COc1ccc(Oc2cncc(C3CCN(C(=O)C4(c5ccccc5)CCOCC4)CC3)n2)cc1
2. COc1cccc([C@@H]2C[C@]3(C)NC(=O)CCCC[C@@H]3N2CC(=O)NCc2nc3ccccc3n2C)c1
3. COc1cccc(C(=O)N2CCNC(=O)C2Cc2cccc(-c3cccc(F)c3)c2)c1OC (stereo not shown)
4. CC(C)C[C@H]1CN(C(=O)CCn2c(=O)oc3cc(Cl)ccc32)CC[C@H]1Nc1cccc(F)c1

[out]
1. 3.43
2. 0.95
3. 1.68
4. 1.76

List Inhibition percent for every entry below, keeping the order given.
1. CC(C)(C)OC(=O)Nc1cc(-c2c[nH]nc2C2CCCCN2C(=O)OC(C)(C)C)ccn1 (stereo not shown)
2. Cc1c(F)cccc1NC(=O)CN1[C@H](Cc2ccccc2)C[C@]2(C)NC(=O)CCC[C@H]12
3. Cc1cccc(Nc2ccc(C3CCCN3C(=O)COc3ccc4c(c3)OCCO4)nc2)n1 (stereo not shown)
4. COc1ccccc1Cc1cnc(C2CCCN(C(=O)c3cc(-c4ccc(F)cc4)no3)C2)o1 (stereo not shown)
5. CC(=O)N1[C@H](Cc2ccccc2)[C@@H]2C[C@@]3(C)[C@H](CCC[C@@H]13)N2C(=O)CNC(=O)c1ccccc1
6. C=CCC1(CC=C)CCN1C(=O)C1(Cc2ccc(-c3cccnc3)cc2)CCOCC1

[out]
10.59
0.80
3.48
6.24
3.61
-1.31

Entry source: paper PMC9995496
